Compiled record: IC50 values for Insulin-like growth factor 1 receptor (Homo sapiens, UniProt P08069) across several sources.

As a guide, the following entries are already answered.
Name the reported IC50 value associated with the molecule Cc1ccc(OC[C@H](O)CNc2cc[nH]c(=O)c2-c2nc3cc4c(cc3[nH]2)C(=O)N(C2CCNCC2)C4=O)c(C)c1 < 500 nM

What do we get for CC(=N)N1CCC(N2C(=O)c3cc4nc(-c5c(NC[C@@H](O)COc6ccc(C)cc6C)cc[nH]c5=O)[nH]c4cc3C2=O)CC1 ? < 500 nM

What do we get for CCc1cc(Nc2ncc(Br)c(Nc3ccc(-c4c(C)cnn4C)cc3P(C)(C)=O)n2)c(OC)cc1N1CCC(N2CCN(C)CC2)CC1 ? 624 nM

What do we get for Cc1cccc(OCC(O)CNc2cc[nH]c(=O)c2-c2nc3cc4c(cc3[nH]2)C(=O)N(C2CCN(C)CC2)C4=O)c1 (stereo not shown) ? 500 to 5000 nM

What do we get for C=CC(=O)N[C@@H]1CN(c2nc(Nc3cn(C)nc3OC)c3ncc(C)n3n2)C[C@H]1F ? ≥ 100 nM

What do we get for CN1CCC(N2Cc3cc4nc(-c5c(NC[C@@H](O)COc6c(F)ccc(Cl)c6F)cc[nH]c5=O)[nH]c4cc3C2=O)CC1 ? < 500 nM

Next:
Name the reported IC50 value associated with the molecule CN1CCC(N2C(=O)c3cc4nc(-c5c(NC[C@@H](O)COc6ccc7c(c6)OCO7)ccnc5O)[nH]c4cc3C2=O)CC1 < 500 nM

What do we get for CN(C)CC(C)(C)CN1C(=O)c2cc3nc(-c4c(NC[C@@H](O)c5cccc(Cl)c5)ccnc4O)[nH]c3cc2C1=O ? 500 to 5000 nM

What do we get for CCc1cc(Nc2ncc(Br)c(Nc3ccc(-n4cccn4)cc3P(C)(C)=O)n2)c(OC)cc1N1CCC(N2CCN(C)CC2)CC1 ? 2780 nM

What do we get for CCc1cc(Nc2ncc(Cl)c(Nc3ccc(-c4cnc(C)nc4)cc3P(C)(C)=O)n2)c(OC)cc1N1CCC(N2CCN(C)CC2)CC1 ? 264 nM

What do we get for CCOc1ccc(NC(=O)/C=C/CN(C)C)cc1Nc1ncc(Cl)c(Nc2ccc3ccccc3c2)n1 ? 163 nM

What do we get for CCc1cc(Nc2ncc(Br)c(Nc3ccc(-c4ccc(C)nc4)cc3P(C)(C)=O)n2)c(OC)cc1N1CCC(N2CCN(C)CC2)CC1 ? 179 nM

What do we get for CN1CCC(N2C(=O)c3cc4nc(-c5c(NC[C@@H](O)COc6cccc7c6OC(F)(F)C(F)O7)cc[nH]c5=O)[nH]c4cc3C2=O)CC1 (stereo partly shown) ? < 500 nM

What do we get for C[C@]1(O)C[C@H](n2nc(-c3ccc4ccc(-c5ccccc5)nc4c3)c(C(N)=O)c2N)C1 ? 100 to 1000 nM

What do we get for CN1CCC(N2Cc3cc4nc(-c5c(NC[C@@H](O)COc6ccccc6C(F)(F)F)cc[nH]c5=O)[nH]c4cc3C2=O)CC1 ? < 500 nM

What do we get for NC(=O)c1c(-c2ccc3ccc(-c4ccccc4)nc3c2)nn([C@H]2C[C@H](CN3CCC3)C2)c1N ? ≤ 100 nM

What do we get for C[C@]1(O)C[C@@H](n2nc(-c3ccc4c(OC(F)F)cc(-c5ccccc5)nc4c3F)c(C(N)=O)c2N)C1 ? ≤ 100 nM

What do we get for C=CC(=O)Nc1cc(Nc2nccc(-c3cn(C45CC(C4)C5)c4ccccc34)n2)c(OC)cc1N(C)CCNC ? ≥ 100 nM

What do we get for Cc1ccc(OCC(O)CNc2ccnc(O)c2-c2nc3cc4c(cc3[nH]2)C(=O)N(CC(C)(C)CN(C)C)C4=O)c(C)c1 (stereo not shown) ? < 500 nM
